assayedTarget: recombinant human GR (Homo sapiens, UniProt P04150)
Sequence (P04150 1-777): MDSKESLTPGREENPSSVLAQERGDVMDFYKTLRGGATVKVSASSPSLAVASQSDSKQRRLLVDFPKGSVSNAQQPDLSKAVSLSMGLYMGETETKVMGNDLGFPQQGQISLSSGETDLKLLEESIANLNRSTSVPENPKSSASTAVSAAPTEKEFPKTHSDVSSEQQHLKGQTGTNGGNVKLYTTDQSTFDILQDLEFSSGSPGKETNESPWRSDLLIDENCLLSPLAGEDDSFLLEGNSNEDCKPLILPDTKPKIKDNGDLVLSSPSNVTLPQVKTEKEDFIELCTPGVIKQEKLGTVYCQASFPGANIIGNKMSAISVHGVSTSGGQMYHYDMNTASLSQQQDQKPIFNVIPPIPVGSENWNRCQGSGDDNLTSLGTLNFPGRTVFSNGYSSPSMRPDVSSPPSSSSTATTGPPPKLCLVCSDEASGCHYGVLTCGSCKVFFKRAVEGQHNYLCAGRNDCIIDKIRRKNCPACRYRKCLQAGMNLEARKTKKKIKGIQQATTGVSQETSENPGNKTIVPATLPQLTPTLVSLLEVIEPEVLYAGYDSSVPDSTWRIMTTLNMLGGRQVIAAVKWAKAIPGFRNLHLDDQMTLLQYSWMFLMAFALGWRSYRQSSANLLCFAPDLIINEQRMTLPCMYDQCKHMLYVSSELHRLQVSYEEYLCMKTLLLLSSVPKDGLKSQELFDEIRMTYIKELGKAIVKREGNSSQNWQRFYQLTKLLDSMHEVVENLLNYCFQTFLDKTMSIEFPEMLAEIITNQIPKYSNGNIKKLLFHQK
testDescription: Human Glucocorticoid Receptor (GR) Assay, fluorescence polarization (GRhuFL_FP_v2, GR-binders)
Method: Human Glucocorticoid Receptor (GR) Assay The assay is based on a commercial kit from Panvera/Invitrogen (Part number P2893). The assay technology is fluorescence polarization. […] The GR and Stabilizing Peptide reagents are stored at −70° C. while the GS Red is stored at −20° C. Also included in the kit are 1M DTT (Panvera, Part number P2325, stored at −20° C.) and GR Screening buffer 10× (Panvera, Part number P2814, stored at −70° C. initially but once thawed stored at room temperature). […]
pIC50: −log10 of the molar value.
measuredMetric: pIC50

# count of solved cases: 2
1. Cc1cc(C)c(S(=O)(=O)N[C@@H](C)CNc2cccc3c2cnn3-c2ccc(Cl)cc2)c(C)c1 :: 8.46
2. Cc1nn(C2CCCC2)c(C)c1S(=O)(=O)N[C@@H](C)CNc1cccc2c1cnn2-c1cncnc1 :: 8.24

I: COc1ccc(-n2ncc3c(NC[C@H](C)NS(=O)(=O)c4c(C)cc(C)cc4C)cccc32)cc1F
II: Cc1cc(C)c(S(=O)(=O)N[C@@H](C)CNc2cccc3c2cnn3-c2cccnc2)c(C)c1
III: COc1cncc(-n2ncc3c(NC[C@H](C)NS(=O)(=O)c4c(C)nn(C5CCCC5)c4C)cccc32)c1
IV: Cc1n[nH]c(C)c1S(=O)(=O)N[C@@H](C)COc1cccc2c1cnn2-c1cccnc1
V: Cc1cc(C)c(S(=O)(=O)N[C@@H](C)CNc2cccc3c2c(C)nn3-c2ccc(F)cc2)c(C)c1
INPUT: Form: Sort by [pIC50] Order [ ascending ] # output: labels, in the requested order
OUTPUT: IV, V, III, II, I
(IV: 5.40, V: 6.57, III: 7.36, II: 8.25, I: 8.57)
